# Test system: wheat powdery mildew
# protocol.notes: protectant activity in vivo against wheat powdery mildew
# assay.context: Triticum aestivum, 168 h, read-out: control effect against wheat powdery mildew (%), 1.6 mg/L; protectant activity
Note to self: use True only for pest or weed control at 1.6 µg/mL readings below 40%; a reading exactly at 40% still gets False.

| smiles | discrete.label |
| --- | --- |
| FC(F)c1ncnc(NCCc2ccc(Oc3ccc(C(F)(F)F)cn3)cc2)c1Cl | False |
| CCc1ncnc(NCCc2ccc(Oc3ccc(C(F)(F)F)cn3)cc2)c1Cl | True |
| CCc1ncnc(NCCc2ccc(Oc3cc(Cl)cc(Cl)c3)cc2)c1Cl | False |
| Cc1ncnc(NCCc2ccc(Oc3ccc(C(F)(F)F)cn3)cc2)c1Cl | True |
| CCc1ncnc(NCCc2ccc(Oc3ccc(C(F)(F)F)cc3)cc2)c1Cl.Cl | False |

###

# System: carmine spider mite
# protocol.notes: bioactivity test against carmine spider mite, airbrush spray
# Type: in vivo
# assay.context: Tetranychus cinnabarinus, 72 h, 600 mg/L; contrastive test; read-out: Insecticidal activity against carmine spider mite (% )
The following compounds are shown together with reported pest or weed control at 600 µg/mL values.
experimental.readout: pest or weed control at 600 µg/mL (%)

| compound | reading |
| --- | --- |
| CC(Cl)c1ncnc(NCCc2ccc(Oc3nc(Cl)c(Cl)cc3Cl)cc2)c1Cl (stereo not shown) [CK63, reference compound] | 0 |
| Cc1ncnc(NCc2ccc(Oc3nc(Cl)c(Cl)cc3Cl)cc2)c1Cl [CK33, reference compound] | 41 |
| FC(F)(F)c1ccc(Oc2ccc(CCNc3ncnc4ccccc34)cc2)nc1 [CK12, reference compound] | 100 |
| Cc1ncnc(NCc2ccc(Oc3c(Cl)cc([N+](=O)[O-])cc3Cl)cc2)c1Cl [CK65, reference compound] | 0 |

###

# System: Diamond back moth
# protocol.notes: insecticidal activity against diamond back moth, airbrush spray
# Format: in vivo
# assay.context: 600 mg/L
# Procedure: Compounds were dissolved in mixed solvent (acetone:methanol=1:1), and diluted to required concentration with water containing 0.1% of tween 80. Diamond back moth, armyworm, peach aphid and carmine spider mite were used as targets and the method of spraying by airbrush was used for determination of insecticidal biassays. The method of spraying by airbrush: The cabbage leaves were made into plates of 2 cm diameter by use of punch. […] Scores were conducted and mortalities were calculated after 72 hrs.
Insecticidal activity against diamond back moth (%) for assorted molecules
experimental.readout: Insecticidal activity against diamond back moth (%)

| molecule | reading |
| --- | --- |
| Cc1ncnc(NCCc2ccc(Oc3ccc(Cl)cc3)cc2)c1Cl | 100 |
| CCc1ncnc(NC(=O)Cc2ccc(Oc3ncc(C(F)(F)F)cc3Cl)cc2)c1Cl [CK16, reference compound] | 0 |
| CCc1ncnc(NCCc2ccc(Oc3ccc(C#N)cn3)cc2)c1Cl | 100 |
| Cc1ncnc(NCCc2ccc(Oc3ccc(C#N)cc3F)cc2)c1Cl | 100 |

###

# System: cucumber downy mildew
# protocol.notes: protectant activity in vivo against cucumber downy mildew
# assay.context: Cucumis sativus, 168 h, read-out: control effect against cucumber downy mildew (%), 400 mg/L; protectant activity
The entries below are paired with their reported pest or weed control at 400 µg/mL.

| molecule | pest or weed control at 400 µg/mL |
| --- | --- |
| COC(=O)c1nc(Cl)nc(NC(C)c2ccc(Oc3ncc(C(F)(F)F)cc3Cl)cc2)c1Cl (centres unmarked) [CK34, reference compound] | 85% |
| COc1cc(NCCc2ccc(Oc3ncc(C(F)(F)F)cc3Cl)cc2)ncn1 [CK71, reference compound] | 80% |
| Cc1ncnc(NCCc2ccc(Oc3ccc(Cl)cc3)nc2)c1Cl [III-7] | 100% |
| CCOC(=O)c1ccc(Oc2ccc(CCNc3cc(Cl)ncn3)cc2)nc1 [CK74, reference compound] | 50% |
| Cc1ncnc(NC(=O)Cc2ccc(Oc3ccc(C(F)(F)F)cn3)cc2)c1Cl [CK56, reference compound] | 100% |
| CC(Cl)c1ncnc(NCCc2ccc(Oc3ccc(C(F)(F)F)cc3)cc2)c1Cl (centres unmarked) [CK20, reference compound] | 100% |
| Cc1ncnc(NCc2ccc(Oc3ncc(Cl)cc3Cl)cc2)c1Cl [CK37, reference compound] | 100% |
| Cc1ncnc(NC(=O)Cc2ccc(Oc3ccc(C(F)(F)F)cc3Cl)cc2)c1Cl [CK58, reference compound] | 0% |

###

Each entry below carries its reported Insecticidal activity against carmine spider mite (% ).
# Test system: carmine spider mite
# protocol.notes: bioactivity test against carmine spider mite, airbrush spray
# Type: in vivo
# assay.context: 5 mg/L
experimental.readout: Insecticidal activity against carmine spider mite (% )

| molecule | experimental.system | reading |
| --- | --- | --- |
| CCc1ncnc(NCCc2ccc(Oc3ccc(C(F)(F)F)cn3)cc2)c1Cl [Compound I-254] | carmine spider mite | 93% |
| CCc1ncnc(NCCc2ccc(Oc3ccc(C(F)(F)F)cc3)cc2)c1Cl.Cl [II-19334] | carmine spider mite | 100% |
| CCc1ncnc(NCCc2ccc(Oc3ccc(C(F)(F)F)cn3)cc2)c1Cl [Compound I-6758] | carmine spider mite | 82% |
| Cc1ncnc(NCCc2ccc(Oc3ccc(C#N)cc3F)cc2)c1Cl [II-204] | carmine spider mite | 80% |
| Cc1ncnc(NCCc2ccc(Oc3ccc(C(F)(F)F)cn3)cc2)c1Cl [Compound I-6734] | carmine spider mite | 57% |
| CCc1ncnc(NCCc2ccc(Oc3ccc(C(F)(F)F)cn3)cc2)c1Cl.Cl [Compound I-6739] | carmine spider mite | 93% |
| CCc1ncnc(NCCc2ccc(Oc3ccc(C(F)(F)F)cn3)cc2)c1Cl [Compound I-6756] | carmine spider mite | 88% |
| CCc1ncnc(NCCc2ccc(Oc3ccc(C(F)(F)F)cc3)cc2)c1Cl [II-347] | carmine spider mite | 90% |
| CCc1ncnc(NCCc2ccc(Oc3ccc(C#N)cc3F)cc2)c1Cl [II-482] | carmine spider mite | 100% |

###

# Tested on: cucumber downy mildew
# protocol.notes: protectant activity in vivo against cucumber downy mildew
# assay.context: Cucumis sativus, 168 h, read-out: control effect against cucumber downy mildew (%), 400 mg/L; protectant activity
experimental.readout: pest or weed control at 400 µg/mL

| molecule | reading |
| --- | --- |
| CCOC(=O)c1ccc(Oc2ccc(CCNc3cc(Cl)nc(C)n3)cc2)nc1 [CK76, reference compound] | 0% |
| FC(F)c1ncnc(NCCc2ccc(Oc3ccc(Cl)cc3Cl)nc2)c1Cl [III-622] | 100% |
| CC(F)c1ncnc(NCCc2ccc(Oc3ccc(C(F)(F)F)cc3)cc2)c1Cl (stereo not shown) [CK1, reference compound] | 100% |
| FC(F)(F)c1cnc(Oc2ccc(CCNc3ncnc(Cl)c3Cl)cc2)c(Cl)c1 [CK72, reference compound] | 100% |
| CCc1ncnc(OCCc2ccc(OCc3ccccc3)cc2)c1Cl [CK14, reference compound] | 98% |
| Cc1ncnc(NCc2ccc(Oc3ccc(C(F)(F)F)cn3)cc2)c1Cl [CK22, reference compound] | 100% |
| CCc1ncnc(NCCc2ccc(Oc3ccc(C(F)(F)F)cc3)nc2)c1Cl [III-202] | 100% |
| COC(=O)c1ccc(Oc2ccc(CCNc3cc(Cl)nc(C)n3)cc2)nc1 [CK79, reference compound] | 85% |
| Cc1ncnc(NCc2ccc(Oc3nc(Cl)c(Cl)cc3Cl)cc2)c1Cl [CK33, reference compound] | 0% |
| FC(F)(F)c1cnc(Oc2ccc(CCNc3cc(Cl)ncn3)cc2)c(Cl)c1 [CK70, reference compound] | 100% |
| Cc1nc(C)c(Cl)c(NCc2ccc(OCc3ccccc3)cc2)n1 [CK52, reference compound] | 100% |
| Cc1ncnc(NCc2ccc(Oc3ccc(C(F)(F)F)cc3)cc2)c1Cl [CK53, reference compound] | 100% |
| CCc1ncnc(NCc2ccc(Oc3c(Cl)cc([N+](=O)[O-])cc3Cl)cc2)c1Cl [CK66, reference compound] | 0% |
| COC(=O)c1ccc(Oc2ccc(CCNc3cc(Cl)ncn3)cc2)nc1 [CK77, reference compound] | 0% |
| CCc1ncnc(NCc2ccc(Oc3ccc(C(F)(F)F)cc3)cc2)c1Cl [CK54, reference compound] | 100% |
| N#Cc1ccc(Oc2ccc(CCNc3nc(Cl)ncc3Cl)cc2)nc1 [CK26, reference compound] | 100% |

###

# Tested on: cucumber downy mildew
# protocol.notes: protectant activity in vivo against cucumber downy mildew
# assay.context: Cucumis sativus, 168 h, read-out: control effect against cucumber downy mildew (%), 12.5 mg/L; protectant activity
Entries annotated with measured pest or weed control at 12.5 µg/mL

| compound | pest or weed control at 12.5 µg/mL [%] |
| --- | --- |
| CCc1ncnc(NCc2ccc(Oc3ccc(C(F)(F)F)cn3)cc2)c1Cl [CK42, reference compound] | 0 |
| Cc1ncnc(NCCc2ccc(Oc3ccc(C(F)(F)F)cn3)cc2)c1Cl | 100 |
| CCC(Nc1ncnc(C)c1Cl)c1ccc(OC(F)F)cc1 (stereo not shown) [diflumetorim, reference compound] | 15 |
| CCc1ncnc(NCCc2ccc(Oc3ccc(C(F)(F)F)cc3)nc2)c1Cl | 100 |
| COc1cc(CCNc2ncnc(C(F)F)c2Cl)ccc1Oc1ccc(Cl)cc1 | 95 |
| Cc1ncnc(NCCc2ccc(Oc3ccc(Cl)cc3)nc2)c1Cl | 100 |
| CC(F)c1ncnc(NCCc2ccc(Oc3ccc(C(F)(F)F)cc3)cc2)c1Cl (stereo not shown) [CK1, reference compound] | 50 |
| FC(F)c1ncnc(NCCc2ccc(Oc3ccc(Cl)cc3Cl)nc2)c1Cl | 100 |
| CCc1ncnc(NCCc2ccc(Oc3ccc(Cl)nn3)cc2)c1Cl | 70 |
| FC(F)c1ncnc(NCCc2ccc(Oc3ccc(Cl)cc3)cc2)c1Cl | 95 |
